Ref: the supplement of paper PMC10126150

test system: ATP; assay: switch fluorescence ratio, 500 uM ATP over buffer (Cy3 cluster intensity, sum of 5 cycles each) (fold (ratio)); higher = stronger signal-on switching upon ATP binding; sequences stand for … in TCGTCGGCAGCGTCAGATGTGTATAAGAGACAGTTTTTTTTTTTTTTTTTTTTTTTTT…TC; details: aptamer strand: ATP DNA aptamer (quencher-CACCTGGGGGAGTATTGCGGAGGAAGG + anchor), 100 nM annealed; ATP concentration: 500 uM;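 further: ATP exposure 15 min at 22 °C before imaging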

# Sequence Code, Target Of Assay, switch fluorescence ratio
measured = [
    ("TGAGATTCTG", "ATP", 1.05),
    ("ACGAATGTTG", "ATP", 0.992),
    ("CAATCAATCG", "ATP", 1.05),
    ("TTGGGCAATA", "ATP", 1.77),
    ("GGGTTAGAGA", "ATP", 0.967),
    ("GTAGTTGTGG", "ATP", 1.01),
    ("AAATACGAGA", "ATP", 1.06),
    ("ATGATATGTT", "ATP", 0.992),
    ("AGAAAGGGGT", "ATP", 1.01),
    ("GCTTTTCTTG", "ATP", 1.01),
    ("GGATTCCGGC", "ATP", 0.981),
    ("TGGACTACGC", "ATP", 1.06),
    ("TAGTATTTTT", "ATP", 0.977),
    ("TGTGGGGGAG", "ATP", 1.03),
]
